Catalogue of EC50 values
- tgt: UniProt P08069
- protocol_description: Cellular IGF-1R-phosphorylation assay (Fibro-hIGF-1R cells)
- experimental_conditions: IGF-1 stimulated (20 ng/mL, 30 min), 120 min compound incubation, read-out: pIGF-1R EC50 range

[[record]]
molecule = "COc1cc(C(=O)NC2CCOCC2)ccc1Nc1ncc2c(n1)-c1c(nn(C)c1-c1ccc(-c3cnn(C)c3)cc1)CC2 [I-160]"
tgt = "UniProt P08069"
test_result = "< 10 nM"

[[record]]
molecule = "CCn1ccc(Nc2ncc3c(n2)-c2c(nn(C)c2-c2ccc(-c4cnn(CCN5CCC(N(C)C)CC5)c4)cc2)CC3)n1 [I-119]"
tgt = "UniProt P08069"
test_result = "< 10 nM"

[[record]]
molecule = "CC(=O)N1CCC(n2cc(Nc3ncc4c(n3)-c3c(nn(C)c3-c3ccc(-c5cnn(C(C)C)c5)cc3)CC4)cn2)CC1 [I-022]"
tgt = "UniProt P08069"
test_result = "10 to 100 nM"


Record summary for COc1cc(C(=O)NC(C)C)ccc1Nc1ncc2c(n1)-c1c(nn(C)c1-c1ccc(-c3cnn(C)c3)cc1)CC2 [I-132] : reported EC50 = < 10 nM

###

- tgt: human IGF-1R (Homo sapiens (Human), UniProt P08069)
- Sequence (P08069 31-1367): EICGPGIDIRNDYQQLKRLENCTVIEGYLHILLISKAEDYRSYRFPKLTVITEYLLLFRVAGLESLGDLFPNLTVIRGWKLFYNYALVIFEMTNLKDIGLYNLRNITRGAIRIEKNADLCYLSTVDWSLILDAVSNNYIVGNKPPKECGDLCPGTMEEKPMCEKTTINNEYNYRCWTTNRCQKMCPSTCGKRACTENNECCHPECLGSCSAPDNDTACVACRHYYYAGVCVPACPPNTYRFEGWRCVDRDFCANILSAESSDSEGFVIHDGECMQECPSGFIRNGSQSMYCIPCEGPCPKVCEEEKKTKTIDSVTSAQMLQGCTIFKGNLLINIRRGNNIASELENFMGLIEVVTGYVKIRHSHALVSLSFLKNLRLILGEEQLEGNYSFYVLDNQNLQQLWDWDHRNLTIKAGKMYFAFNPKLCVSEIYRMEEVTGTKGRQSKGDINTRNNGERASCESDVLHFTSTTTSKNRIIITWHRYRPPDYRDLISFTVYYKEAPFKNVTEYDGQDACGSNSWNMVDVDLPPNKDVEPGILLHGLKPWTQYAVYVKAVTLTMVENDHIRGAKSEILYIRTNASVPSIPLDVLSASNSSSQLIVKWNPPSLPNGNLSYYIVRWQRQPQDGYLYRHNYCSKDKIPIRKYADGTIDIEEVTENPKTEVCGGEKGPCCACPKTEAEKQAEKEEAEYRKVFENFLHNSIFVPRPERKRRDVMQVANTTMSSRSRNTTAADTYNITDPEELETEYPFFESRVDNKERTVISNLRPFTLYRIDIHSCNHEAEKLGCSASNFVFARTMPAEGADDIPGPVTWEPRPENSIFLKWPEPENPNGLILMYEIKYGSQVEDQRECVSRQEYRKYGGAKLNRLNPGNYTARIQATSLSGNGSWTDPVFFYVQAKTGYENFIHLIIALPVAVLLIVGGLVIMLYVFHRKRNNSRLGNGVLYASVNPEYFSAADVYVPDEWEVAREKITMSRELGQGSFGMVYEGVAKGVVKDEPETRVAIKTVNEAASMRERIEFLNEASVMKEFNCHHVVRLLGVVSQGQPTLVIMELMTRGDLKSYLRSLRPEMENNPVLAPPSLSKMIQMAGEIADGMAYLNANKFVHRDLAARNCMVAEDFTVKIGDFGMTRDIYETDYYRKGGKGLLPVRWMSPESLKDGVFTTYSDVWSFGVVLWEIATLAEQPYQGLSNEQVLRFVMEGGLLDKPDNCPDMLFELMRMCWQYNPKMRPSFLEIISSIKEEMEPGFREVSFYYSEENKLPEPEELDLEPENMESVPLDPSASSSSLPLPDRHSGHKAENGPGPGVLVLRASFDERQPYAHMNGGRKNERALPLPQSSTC
- protocol_description: Cellular IGF-1R-phosphorylation assay (Fibro-hIGF-1R cells)
- experimental_conditions: IGF-1 stimulated (20 ng/mL, 30 min), 120 min compound incubation, read-out: pIGF-1R EC50 range
Catalogue of EC50 values

Below: 3 compounds and their reported EC50.
[[record]]
chemical_smiles = "COCCn1cc(Nc2ncc3c(n2)-c2c(nn(C)c2-c2ccc(-c4cnn(C(C)C)c4)cc2)CC3)cn1"
test_result = "< 0.01 µM"

[[record]]
chemical_smiles = "CC(=O)N1CCC(n2cc(Nc3ncc4c(n3)-c3c(nn(C)c3-c3ccc(-c5cnn(C)c5)cc3)CC4)cn2)CC1"
test_result = "0.01 to 0.1 µM"

[[record]]
chemical_smiles = "COc1cc(C(=O)N2CCOCC2)ccc1Nc1ncc2c(n1)-c1c(nn(C)c1-c1ccc(-c3cnn(C)c3)cc1)CC2"
test_result = "< 0.01 µM"


Record summary for CC(=O)N1CCC(n2cc(Nc3ncc4c(n3)-c3c(nn(C)c3-c3ccc(-c5cnn(C)c5)nc3)CC4)cn2)CC1 : reported EC50 = 0.1 to 0.6 µM

###

- tgt: cytoplasmic kinase domain of human IGF-1R (IGF-1R-GST) (Homo sapiens (Human), UniProt P08069)
- protocol_description: Insulin-like growth factor-1 receptor (IGF-1R) kinase assay (DELFIA)
- experimental_conditions: inhibition of IGF-1R-kinase activity, read-out: IGF1R IC50
measured_attribute: IC50 (pM)

Below: 2 compounds and their reported IC50.
[[record]]
chemical_smiles = "CN(C)S(=O)(=O)N1CCC(n2cc(Nc3ncc4c(n3)-c3c(nn(C)c3-c3ccc(-c5cnn(C)c5)cc3)CC4)cn2)CC1"
measured_attribute = "IC50"
units_label = "pM"
test_result = 340

[[record]]
chemical_smiles = "COCCn1cc(Nc2ncc3c(n2)-c2c(nn(C)c2-c2ccc(-c4cnn(C(C)C)c4)cc2)CC3)cn1"
measured_attribute = "IC50"
units_label = "pM"
test_result = 280


A = CC(=O)N1CCC(n2cc(Nc3ncc4c(n3)-c3c(nn(C)c3-c3ccc(-c5cnn(C)c5)nc3)CC4)cn2)CC1
B = COc1cc(N2CCN(C(C)C)CC2)ccc1Nc1ncc2c(n1)-c1c(nn(C)c1-c1ccc(-c3cnn(C)c3)cc1)CC2
Please indicate which entry, A or B , has the lower recorded IC50 value. Let me know the label of the one you choose.
B

1 = COc1cc(C(=O)N2CCOCC2)ccc1Nc1ncc2c(n1)-c1c(nn(C)c1-c1ccc(-c3cnn(C)c3)cc1)CC2
2 = COc1cc(C(=O)NC2CCOCC2)ccc1Nc1ncc2c(n1)-c1c(nn(C)c1-c1ccc(-c3cnn(C)c3)cc1)CC2
Please indicate which entry, 1 or 2 , has the lower recorded IC50 value. Let me know the label of the one you choose.
1
(1: 220 pM, 2: 610 pM)

1 = COc1cc(C(=O)N2CCN(C)CC2)ccc1Nc1ncc2c(n1)-c1c(nn(C)c1-c1ccc(-c3cnn(C)c3)cc1)CC2
2 = CCn1ccc(Nc2ncc3c(n2)-c2c(nn(C)c2-c2ccc(-c4c(C)noc4C)cc2)CC3)n1
3 = COc1cc(C(=O)NC(C)C)ccc1Nc1ncc2c(n1)-c1c(nn(C)c1-c1ccc(-c3cnn(C)c3)cc1)CC2
4 = CC(C)n1cc(-c2ccc(-c3c4c(nn3C)CCc3cnc(Nc5cnn(CCN6CCOCC6)c5)nc3-4)cc2)cn1
Place the items in sequence of falling IC50. Record the ranking as a list of labels in the requested order.
2, 4, 3, 1
(2: 15000 pM, 4: 420 pM, 3: 260 pM, 1: 160 pM)

1 = COc1cc(C(=O)NC2CN(C)C2)ccc1Nc1ncc2c(n1)-c1c(nn(C)c1-c1ccc(-c3cnn(C)c3)cc1)CC2
2 = COc1cc(N2CCN(C3CCOCC3)CC2)ccc1Nc1ncc2c(n1)-c1c(nn(C)c1-c1ccc(-c3cnn(C)c3)cc1)CC2
3 = CC(=O)N1CCC(n2cc(Nc3ncc4c(n3)-c3c(nn(C)c3Cc3cccc(-c5cnn(C)c5)c3)CC4)cn2)CC1
Hey, can you sort those compounds up there by IC50, smallest first? Record the ranking as a list of labels in the requested order.
2, 1, 3

a = Cn1cc(-c2ccc(-c3c4c(nn3C)CCc3cnc(Nc5cnn(C6CCN(S(C)(=O)=O)CC6)c5)nc3-4)cc2)cn1
b = CCn1ccc(Nc2ncc3c(n2)-c2c(nn(C)c2-c2ccc(-c4cnn(C5CCNCC5)c4)cc2)CC3)n1
Which has the higher IC50, a or b ? Let me know the label of the one you choose.
a

A = COc1cc(N2CCN(S(=O)(=O)N(C)C)CC2)ccc1Nc1ncc2c(n1)-c1c(nn(C)c1-c1ccc(-c3cnn(C)c3)cc1)CC2
B = CC(=O)N1CCC(n2cc(Nc3ncc4c(n3)-c3c(nn(C)c3-c3ccc(-c5cnn(C)c5)cc3)CC4)cn2)CC1
Which has the higher IC50, A or B ? Let me know the label of the one you choose.
A

P = COCCN1CCC(n2cc(Nc3ncc4c(n3)-c3c(nn(C)c3-c3ccc(-c5cnn(C)c5)cc3)CC4)cn2)CC1
Q = CCn1ccc(Nc2ncc3c(n2)-c2c(nn(C)c2-c2ccc(-c4cnn(C)c4)cc2Cl)CC3)n1
Which has the higher IC50, P or Q ? Let me know the label of the one you choose.
Q
(Q: 310 pM, P: 160 pM)

###

Catalogue of EC50 values
- tgt: human IGF-1R (Homo sapiens (Human))
- protocol_description: Cellular IGF-1R-phosphorylation assay (Fibro-hIGF-1R cells)
- experimental_conditions: IGF-1 stimulated (20 ng/mL, 30 min), 120 min compound incubation, read-out: pIGF-1R EC50 range

[[record]]
chemical_smiles = "CC(=O)N1CCC(n2cc(Nc3ncc4c(n3)-c3c(nn(C)c3Cc3cccc(-c5cnn(C)c5)c3)CC4)cn2)CC1"
measured_attribute = "EC50"
test_result = "10 to 100 nM"

[[record]]
chemical_smiles = "COc1cc(C(=O)N2CCN(C)CC2)ccc1Nc1ncc2c(n1)-c1c(nn(C)c1-c1ccc(-c3cnn(C)c3)cc1)CC2"
measured_attribute = "EC50"
test_result = "< 10 nM"

[[record]]
chemical_smiles = "COc1cc(N2CCN(S(=O)(=O)N(C)C)CC2)ccc1Nc1ncc2c(n1)-c1c(nn(C)c1-c1ccc(-c3cnn(C)c3)cc1)CC2"
measured_attribute = "EC50"
test_result = "< 10 nM"


Given the compound CC(C)n1cc(-c2ccc(-c3c4c(nn3C)CCc3cnc(Nc5cnn(CCN6CCOCC6)c5)nc3-4)cc2)cn1 and test system human IGF-1R (Homo sapiens (Human)), the measured EC50 is < 10 nM

Given the compound COc1cc(C(=O)N[C@@H]2CCN(C)C[C@H]2OC)ccc1Nc1ncc2c(n1)-c1c(nn(C)c1-c1ccc(-c3cnn(C)c3)cc1)CC2 and test system human IGF-1R (Homo sapiens (Human)), the measured EC50 is < 10 nM

Given the compound CCn1ccc(Nc2ncc3c(n2)-c2c(nn(C)c2-c2ccc(-c4cnn(C5CCNCC5)c4)cc2)CC3)n1 and test system human IGF-1R (Homo sapiens (Human)), the measured EC50 is 10 to 100 nM

Given the compound CN(C)[C@H]1CCN(C(=O)Cn2ccc(Nc3ncc4c(n3)-c3c(nn(C)c3-c3ccc(-c5cnn(C)c5)cc3)CC4)n2)C1 and test system human IGF-1R (Homo sapiens (Human)), the measured EC50 is 10 to 100 nM

Given the compound CCN1CCN(c2ccc(Nc3ncc4c(n3)-c3c(nn(C)c3-c3ccc(-c5cnn(C)c5)cc3)CC4)c(OC)c2)CC1 and test system human IGF-1R (Homo sapiens (Human)), the measured EC50 is < 10 nM

Given the compound COc1cc(N2CCN(C(C)C)CC2)ccc1Nc1ncc2c(n1)-c1c(nn(C)c1-c1ccc(-c3cnn(C)c3)cc1)CC2 and test system human IGF-1R (Homo sapiens (Human)), the measured EC50 is < 10 nM

Given the compound CC(C)n1cc(-c2ccc(-c3c4c(nn3C)CCc3cnc(Nc5cnn(CCN(C)C)c5)nc3-4)cc2)cn1 and test system human IGF-1R (Homo sapiens (Human)), the measured EC50 is < 10 nM

Given the compound COc1cc(N2CCN(C3CCOCC3)CC2)ccc1Nc1ncc2c(n1)-c1c(nn(C)c1-c1ccc(-c3cnn(C)c3)cc1)CC2 and test system human IGF-1R (Homo sapiens (Human)), the measured EC50 is < 10 nM

Given the compound CCn1ccc(Nc2ncc3c(n2)-c2c(nn(C)c2-c2ccc(-c4cnn(C)c4)cc2Cl)CC3)n1 and test system human IGF-1R (Homo sapiens (Human)), the measured EC50 is < 10 nM

Given the compound CCn1ccc(Nc2ncc3c(n2)-c2c(nn(C)c2-c2ccc(-c4c(C)noc4C)cc2)CC3)n1 and test system human IGF-1R (Homo sapiens (Human)), the measured EC50 is 100 to 600 nM

Given the compound COc1cc(C(=O)NC2CN(C)C2)ccc1Nc1ncc2c(n1)-c1c(nn(C)c1-c1ccc(-c3cnn(C)c3)cc1)CC2 and test system human IGF-1R (Homo sapiens (Human)), the measured EC50 is 10 to 100 nM
